# Tested on: SK-MEL-28 melanoma
# assay.name: NCI tumour cell line growth inhibition, 48 h
property.measured: GI50

A selection of reference data follows.
Problem: Recall and state the measured GI50 for "[Co+2].[O-]c1ccccc1C=NCc1ccccc1.[O-]c1ccccc1C=NCc1ccccc1" .
Solution: 6.9 µM

Problem: Recall and state the measured GI50 for "Cc1cc(C)c(C#N)c(SCC(=O)c2sc3c(C#N)c(C)cc(C)[n+]3c2[O-])n1" .
Solution: 1.41 µM

Problem: Recall and state the measured GI50 for O=C1OC(c2cccc(C(F)(F)F)c2)c2ccc3ccccc3c21 (centres undefined) .
Solution: > 100 µM

Problem: Recall and state the measured GI50 for "CCN(CC)CCNC(=O)c1cn2ncnc(Oc3ccc(NC(=O)Nc4ccc(Cl)c(C(F)(F)F)c4)cc3)c2c1C" .
Solution: 1.48 µM

Problem: Recall and state the measured GI50 for "CCOC(=O)c1ccc2[nH]c(O)c(C(=Nc3ccc(N(C)C(=O)CN4CCN(C)CC4)cc3)c3ccccc3)c2c1" .
Solution: 1.11 µM

Problem: Recall and state the measured GI50 for "Cc1ccc(S(=O)(=O)NC2=NCCN2C(=S)SN2CCn3c2nsc3=S)cc1" .
Solution: 17.2 µM

Problem: Recall and state the measured GI50 for COc1cc(C2C3=C(COC3=O)Oc3cc4c(cc32)OCO4)cc(OC)c1OC (centres undefined) .
Solution: 11.1 µM

Problem: Recall and state the measured GI50 for "CC(=O)CC(=O)Nc1c(C)[c]([Hg][O]C(C)=O)c(C)[c]([Hg][O]C(C)=O)[c]1[Hg][O]C(C)=O" .
Solution: 12.6 µM

Below is a list of compounds. For each, state its recorded GI50.
1. CCOc1ccc2nc(S/C(=C/C=C(C#N)C#N)c3ccc(Cl)cc3)sc2c1
2. CCc1c2c(nc3ccc(OC(=O)NCc4ccc(B5OC(C)(C)C(C)(C)O5)cc4)cc13)-c1cc3c(c(=O)n1C2)COC(=O)[C@]3(O)CC
3. COc1ccc2c(c1)OCC1c3cc(O)ccc3OC21 (centres undefined)
4. O=C(COc1cccc(/C=C2/Oc3ccccc3C2=O)c1)Nc1nccs1
5. N#Cc1c(N)nc(NCc2ccccc2)c(C#N)c1-c1ccc(Cl)cc1
6. NCCCCCCn1c2c(c3ccccc3c1=O)C(=O)c1ccccc1-2

Solution:
["3.81 µM", "0.577 µM", "> 100 µM", "28.9 µM", "25.9 µM", "1.9 µM"]

----------
# Tested on: MCF7 breast
# assay.name: NCI tumour cell line growth inhibition, 48 h; in the data active means GI50 below about 0.43 µM; inactive means the rest
Hi there, use one of these labels in your reply, thanks! TRUE (active), FALSE (inactive)

Problem: Dear all, I need the recorded test outcome for COc1cc(C2C3=C(COC3=O)Oc3cc4c(cc32)OCO4)cc(OC)c1OC (stereo not drawn) , thank you.
Solution: TRUE

Problem: Dear all, I need the recorded test outcome for "Oc1ccccc1N=Cc1c(O)ccc2ccccc12" , thank you.
Solution: FALSE

Next:
Problem: Dear all, I need the recorded test outcome for CN1C(=O)CC2(C)c3cc(O)ccc3N(C)C12 (stereo not drawn) , thank you.
Solution: FALSE

----------
For each record, write down the corresponding TGI.
# Tested on: OVCAR-4 ovarian
# assay.name: NCI tumour cell line growth inhibition, 48 h
Where a SMILES comes first, the peptide text is derived from it. [ ]: non-standard residue; d: D form. The star is where a group is joined. Phe(4-NO2) = N[CH](Cc1ccc([N+](=O)[O-])cc1)C(=O)O; Boc = CC(C)(C)OC(=O)*; OtBu = CC(C)(C)O*

Problem: Recall and state the measured TGI for CCCCCCCCCCCc1noc2c1C(=O)C(O)CC2 (stereo not drawn) .
Solution: 33 µM

Below is a list of compounds. For each, state its recorded TGI.
1. CC(=O)N1N=C(c2cc(C)ccc2O)CC1c1cccc(Cl)c1 (stereo not drawn)
2. NC1=NS(=O)(=O)Nc2nc(-c3ccccc3)c(-c3ccccc3)nc21
3. N#Cc1ccc(Oc2nc3ccccc3nc2C(=O)O)cc1

Solution:
1: 54.8 µM; 2: > 100 µM; 3: > 100 µM

Below is a list of compounds. For each, state its recorded TGI.
1. N#Cc1cc(-c2nc3ccc(F)cc3s2)ccc1N
2. [Co+2].[O-]c1ccccc1C=NCc1ccccc1.[O-]c1ccccc1C=NCc1ccccc1
3. O=C1CC[C@@]2(O)[C@H]3Cc4ccc(-c5cccc(O)c5)c5c4[C@@]2(CCN3CC2CC2)[C@H]1O5
4. CC1CN=C(N(C(=O)Nc2ccccc2)c2ccccc2)S1 (stereo not drawn)
5. COc1ccc(N2C(=O)CC(=O)N(C(=O)CCCCCCCCC(=O)N3C(=O)CC(=O)N(c4ccc(OC)cc4)C3=S)C2=S)cc1
6. S=c1[nH]n2c(Cc3ccccc3)nnc2s1

Solution:
["> 100 µM", "> 100 µM", "> 100 µM", "> 100 µM", "> 100 µM", "> 100 µM"]

Below is a list of compounds. For each, state its recorded TGI.
1. CC1(C)COC2(OC1)C1=NS(=O)(=O)CC13CCC2C3(C)C (stereo not drawn)
2. CC(=O)NC(CCC(=O)OC(C)(C)C)C(=O)NC(CCC(=O)OC(C)(C)C)C(=O)NC(Cc1ccc([N+](=O)[O-])cc1)C(=O)NC(CCCCNC(=O)OC(C)(C)C)C(=O)NC(CCCCNC(=O)OC(C)(C)C)C(=O)NCC(=O)O (stereo not drawn) (Ac-E(OtBu)E(OtBu)[Phe(4-NO2)]K(Boc)K(Boc)G-OH; configuration not given here)
3. CCc1nnc(CC)n1-n1c(Cc2ccccc2)n[nH]c1=O
4. COc1ccc2nc3c([N+](=O)[O-])ccc4c3c(c2c1)N(CCCN(C)C)C(=S)N4CCCN(C)C
5. CC(C)(C)c1cc(Cc2ccc([N+](C)(C)C)cc2)c(O)c(C(C)(C)C)c1
6. O=C(/C=C(\N=P(c1ccccc1)(c1ccccc1)c1ccccc1)C(F)(F)C(F)(F)C(F)(F)C(F)(F)C(F)(F)C(F)(F)C(F)(F)F)c1ccccc1
7. CC1CCCP(=O)(c2ccccc2)CC1 (stereo not drawn)
8. CCOc1cc(C(c2c(O)c3ccccc3oc2=O)c2c(O)c3ccccc3oc2=O)ccc1OC

Solution:
1. > 100 µM
2. > 100 µM
3. > 100 µM
4. 70.7 µM
5. > 100 µM
6. > 100 µM
7. > 100 µM
8. 34.1 µM
